- studySystem: VLA-4 (Homo sapiens, UniProt P05556+P13612)
- Sequence (P13612 34-1032): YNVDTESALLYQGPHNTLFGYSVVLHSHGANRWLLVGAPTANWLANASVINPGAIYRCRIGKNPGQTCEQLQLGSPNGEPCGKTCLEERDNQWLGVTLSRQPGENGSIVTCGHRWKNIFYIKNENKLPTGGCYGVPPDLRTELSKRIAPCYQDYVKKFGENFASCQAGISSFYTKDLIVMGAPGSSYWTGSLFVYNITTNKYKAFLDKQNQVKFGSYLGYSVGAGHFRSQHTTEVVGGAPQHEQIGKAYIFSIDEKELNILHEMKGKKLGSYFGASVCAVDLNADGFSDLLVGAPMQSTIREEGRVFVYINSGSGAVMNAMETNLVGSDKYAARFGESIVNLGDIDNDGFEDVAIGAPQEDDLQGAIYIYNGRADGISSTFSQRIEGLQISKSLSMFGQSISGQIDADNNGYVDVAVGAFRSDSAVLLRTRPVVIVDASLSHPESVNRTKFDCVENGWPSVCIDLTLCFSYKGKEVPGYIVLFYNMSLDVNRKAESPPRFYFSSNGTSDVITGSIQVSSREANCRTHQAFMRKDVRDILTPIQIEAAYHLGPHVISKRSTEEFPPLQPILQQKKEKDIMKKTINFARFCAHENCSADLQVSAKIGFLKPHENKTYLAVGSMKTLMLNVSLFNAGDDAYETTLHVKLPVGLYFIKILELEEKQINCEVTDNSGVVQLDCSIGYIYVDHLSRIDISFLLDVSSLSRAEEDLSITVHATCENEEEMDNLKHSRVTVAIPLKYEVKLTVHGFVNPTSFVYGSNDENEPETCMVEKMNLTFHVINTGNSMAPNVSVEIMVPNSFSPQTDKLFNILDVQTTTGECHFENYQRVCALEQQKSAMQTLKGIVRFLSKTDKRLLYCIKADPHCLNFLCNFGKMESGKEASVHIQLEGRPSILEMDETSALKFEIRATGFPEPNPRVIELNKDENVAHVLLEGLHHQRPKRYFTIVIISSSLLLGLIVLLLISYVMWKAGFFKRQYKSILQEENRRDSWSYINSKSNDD
- Sequence (P05556 21-798): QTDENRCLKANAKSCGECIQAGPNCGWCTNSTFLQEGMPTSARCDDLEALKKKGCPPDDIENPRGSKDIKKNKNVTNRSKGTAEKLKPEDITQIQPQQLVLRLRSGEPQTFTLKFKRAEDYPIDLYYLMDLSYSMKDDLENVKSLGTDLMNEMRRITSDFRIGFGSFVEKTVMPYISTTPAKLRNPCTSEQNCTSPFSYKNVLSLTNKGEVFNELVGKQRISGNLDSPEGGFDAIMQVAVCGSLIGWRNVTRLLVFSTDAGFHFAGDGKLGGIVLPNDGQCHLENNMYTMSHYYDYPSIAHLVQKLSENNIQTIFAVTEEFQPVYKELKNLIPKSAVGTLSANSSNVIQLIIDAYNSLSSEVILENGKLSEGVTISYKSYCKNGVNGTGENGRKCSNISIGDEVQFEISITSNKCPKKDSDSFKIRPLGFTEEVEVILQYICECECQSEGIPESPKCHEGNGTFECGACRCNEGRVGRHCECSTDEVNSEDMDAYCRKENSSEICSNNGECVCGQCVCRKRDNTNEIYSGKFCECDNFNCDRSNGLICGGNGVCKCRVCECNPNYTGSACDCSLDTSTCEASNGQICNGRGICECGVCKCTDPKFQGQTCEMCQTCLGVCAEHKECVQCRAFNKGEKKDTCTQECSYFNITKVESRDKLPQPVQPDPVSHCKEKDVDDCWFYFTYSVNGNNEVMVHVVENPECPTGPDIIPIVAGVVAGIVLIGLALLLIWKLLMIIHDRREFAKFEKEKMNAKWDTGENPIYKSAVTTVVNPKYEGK
- testProtocol: In vitro binding assay: 51Cr-labeled Jurkat cells to solid phase-bound CS-1 compound (SEQ ID NO:1)
- Type: cell-based
- Set-up: inflammatory cells that contain the VLA-4 receptor [Jurkat cells; host or cells: Jurkat cells (human T lymphoblastic line)
- measurementContext: binding inhibition potency (IC50) relative to standard compound of SEQ ID NO:3 = 1; about one-tenth or less assigned zero
Square brackets hold non-standard residues; d marks the D form. Peptide text beside a SMILES is read from it. * marks the point of attachment. PhAc = O=C(Cc1ccccc1)*
Reported Relative Potency values are given for each entry in this list.

{"compound": "CC(C)C[C@@H](CN[C@@H](CC(=O)O)C(=O)N[C@@H](Cc1ccccc1)C(=O)N1CCCCC1)NC(=O)Cc1ccccc1", "studySystem": "VLA-4 (Homo sapiens, UniProt P05556+P13612)", "Relative Potency": 0}
{"compound": "NC(=O)[C@H]1CCCN1C(=O)[C@H](Cc1ccccc1)NC(=O)[C@H](CC(=O)O)NC(=O)CCCCC1CCSS1 (stereo partly shown)", "studySystem": "VLA-4 (Homo sapiens, UniProt P05556+P13612)", "Relative Potency": 1.1}
{"compound": "CC(C)C[C@H](NC(=O)[C@H](CC(=O)O)NC(=O)Cc1ccccc1)C(=O)N[C@@H](Cc1ccccc1)C(=O)N1CCC[C@@H]1C(N)=O [N-phenylacetyl-Asp-Leu-Phe-D-Pro-NH2, reference compound] (PhAc-DLF[dP]-NH2)", "studySystem": "VLA-4 (Homo sapiens, UniProt P05556+P13612)", "Relative Potency": 0}
{"compound": "CC(C)C[C@H](NC(=O)Cc1ccccc1)C(=O)N[C@@H](CC(=O)O)C(=O)N[C@@H](Cc1ccccc1)C(=O)N1CCN(CCOCCO)CC1", "studySystem": "VLA-4 (Homo sapiens, UniProt P05556+P13612)", "Relative Potency": 510}

---

- studySystem: VLA-4 (Homo sapiens, UniProt P05556+P13612)
- testProtocol: In vitro binding assay: 51Cr-labeled Jurkat cells to solid phase-bound CS-1 compound (SEQ ID NO:1)
- Type: cell-based
- Design: inflammatory cells that contain the VLA-4 receptor [Jurkat cells; host or cells: Jurkat cells (human T lymphoblastic line)
- measurementContext: before the prodrug compound is enzymatically converted to an active form; relative to SEQ ID NO:3 = 1
- Procedure: Binding inhibition is measured here as a concentration of compound that inhibits one-half the binding between a standard number of Jurkat cells and a standard amount of CS-1 compound bound to the surface of a microtiter plate well. Those concentrations are conveniently expressed as IC50 values, smaller numbers indicating a lower concentration required to inhibit 50 percent binding and therefore greater potency. Further specifics of this assay are provided hereinafter. […]
Square brackets hold non-standard residues; d marks the D form. Peptide text beside a SMILES is read from it. * marks the point of attachment. X8 = CCCCCCCCCCCCCCCCCCO*; PhAc = O=C(Cc1ccccc1)*
Reported Relative Potency (prodrug compound) values are given for each entry in this list.

{"compound": "CCOC(=O)C[C@H](NC(=O)[C@H](CC(C)C)NC(=O)Cc1ccccc1)C(=O)N[C@@H](Cc1ccccc1)C(=O)N1CCC[C@@H]1C(N)=O [1190.01] (PhAc-LD(OEt)F[dP]-NH2)", "Relative Potency (prodrug compound)": 0}
{"compound": "CCCCCCCCCCCCCCCCCCOC(=O)C[C@H](NC(=O)[C@H](CC(C)C)NC(=O)Cc1ccccc1)C(=O)N[C@@H](Cc1ccccc1)C(=O)N1CCC[C@@H]1C(N)=O [1068.12] (PhAc-LD(X8)F[dP]-NH2)", "Relative Potency (prodrug compound)": 0}

---

- studySystem: VLA-4 (Homo sapiens, UniProt P05556+P13612)
- testProtocol: In vitro binding assay: 51Cr-labeled Jurkat cells to solid phase-bound CS-1 compound (SEQ ID NO:1)
- Type: cell-based
- Parameters: inflammatory cells that contain the VLA-4 receptor [Jurkat cells; host or cells: Jurkat cells (human T lymphoblastic line)
- measurementContext: binding inhibition potency (IC50) relative to standard compound of SEQ ID NO:3 = 1; about one-tenth or less assigned zero
Square brackets hold non-standard residues; d marks the D form. Peptide text beside a SMILES is read from it. * marks the point of attachment. Cya = N[C@@H](CS(=O)(=O)O)C(=O)O; hPhe = N[C@@H](CCc1ccccc1)C(=O)O; Piperidide = C1CCN(*)CC1; PhAc = O=C(Cc1ccccc1)*
Reported Relative Potency values are given for each entry in this list.

{"compound": "CC(C)C[C@H](NC(=O)Cc1ccccc1)C(=O)NC(C(=O)O)C(=O)N[C@@H](Cc1ccccc1)C(=O)N1CCCCC1 (stereo partly drawn)", "Relative Potency": 0}
{"compound": "CC(C)C[C@H](NC(=O)Cc1ccccc1)C(=O)N[C@@H](CS(=O)(=O)O)C(=O)N[C@@H](Cc1ccccc1)C(=O)N1CCCCC1 [1026.06] (PhAc-Leu-[Cya]-Phe-Piperidide)", "Relative Potency": 0}
{"compound": "CC(C)C[C@H](NC(=O)Cc1ccccc1)C(=O)N[C@@H](CS(N)(=O)=O)C(=O)N[C@@H](Cc1ccccc1)C(=O)N1CCCCC1", "Relative Potency": 0}
{"compound": "CC(C)C[C@H](NC(=O)Cc1ccccc1)C(=O)N[C@@H](CC(=O)O)C(=O)NC1CCCCN(CC(N)=O)C1=O (stereo partly drawn)", "Relative Potency": 97}
{"compound": "CC(C)C[C@H](NC(=O)Cc1ccccc1)C(=O)N[C@@H](CC(=O)O)C(=O)N[C@@H](Cc1ccccc1)C(=O)N1CCSCC1", "Relative Potency": 450}
{"compound": "CC(C)C[C@H](NC(=O)Cc1ccccc1)C(=O)N[C@@H](CC(=O)O)C(=O)N[C@@H](Cc1ccccc1)C(=O)NCCCO", "Relative Potency": 25}
{"compound": "CC(C)C[C@H](NC(=O)Cc1ccccc1)C(=O)N[C@@H](CC(=O)O)C(=O)N[C@@H](CCc1ccccc1)C(=O)N1CCC[C@@H]1C(N)=O [1062.03] (PhAc-LD[hPhe][dP]-NH2)", "Relative Potency": 93.93}
{"compound": "CC(C)C[C@H](NC(=O)Cc1ccccc1)C(=O)N[C@@H](CC(=O)O)C(=O)NC1Cc2ccccc2N(CCN2CCOCC2)C1=O (stereo partly drawn)", "Relative Potency": 20}
{"compound": "CC(C)C[C@H](NC(=O)c1ccccc1)C(=O)N[C@@H](CC(=O)O)C(=O)N[C@H](C(=O)N1CCC[C@@H]1C(N)=O)C(C)C", "Relative Potency": 9.6}
{"compound": "CC(C)C[C@H](NC(=O)Cc1ccccc1)C(=O)N[C@@H](CP(=O)(O)O)C(=O)N[C@@H](Cc1ccccc1)C(=O)N1CCCCC1", "Relative Potency": 0}
{"compound": "CC(C)C[C@H](NC(=O)Cc1ccccc1)C(=O)N[C@@H](CS)C(=O)N[C@@H](Cc1ccccc1)C(=O)N1CCC[C@@H]1C(N)=O [896.59] (PhAc-LCF[dP]-NH2)", "Relative Potency": 0}

---

Reported Relative Potency (prodrug compound) values are given for each entry in this list.
- studySystem: VLA-4 (Homo sapiens, UniProt P05556+P13612)
- testProtocol: In vitro binding assay: 51Cr-labeled Jurkat cells to solid phase-bound CS-1 compound (SEQ ID NO:1)
- Format: cell-based
- Set-up: inflammatory cells that contain the VLA-4 receptor [Jurkat cells; host or cells: Jurkat cells (human T lymphoblastic line)
- measurementContext: before the prodrug compound is enzymatically converted to an active form; relative to SEQ ID NO:3 = 1
Square brackets hold non-standard residues; d marks the D form. Peptide text beside a SMILES is read from it. * marks the point of attachment. PhAc = O=C(Cc1ccccc1)*; X1 = CCCCCCCCCCCCCCO*; OBn = c1ccc(CO*)cc1; X5 = CCCCCCCCCCCCO*
recordedEndpoint: Relative Potency (prodrug compound)

{"compound": "CCCCCCCCCCCCCCCCCC(=O)OC1CCN(C(=O)[C@H](Cc2ccccc2)NC(=O)[C@H](CC(=O)O)NC(=O)[C@H](CC(C)C)NC(=O)Cc2ccccc2)CC1", "studySystem": "VLA-4 (Homo sapiens, UniProt P05556+P13612)", "recordedEndpoint": "Relative Potency (prodrug compound)", "dataValue": 0.63}
{"compound": "CC(C)C[C@H](NC(=O)Cc1ccccc1)C(=O)N[C@@H](CC(=O)OCc1ccccc1)C(=O)N[C@@H](Cc1ccccc1)C(=O)N1CCC[C@@H]1C(N)=O [1068.07] (PhAc-LD(OBn)F[dP]-NH2)", "studySystem": "VLA-4 (Homo sapiens, UniProt P05556+P13612)", "recordedEndpoint": "Relative Potency (prodrug compound)", "dataValue": 0}
{"compound": "CCCCCCCCCCCCOC(=O)C[C@H](NC(=O)[C@H](CC(C)C)NC(=O)Cc1ccccc1)C(=O)N[C@@H](Cc1ccccc1)C(=O)N1CCC[C@@H]1C(N)=O [1068.10] (PhAc-LD(X5)F[dP]-NH2)", "studySystem": "VLA-4 (Homo sapiens, UniProt P05556+P13612)", "recordedEndpoint": "Relative Potency (prodrug compound)", "dataValue": 0}
{"compound": "CCCCCCCCCCCCCCOC(=O)C[C@H](NC(=O)[C@H](CC(C)C)NC(=O)Cc1ccccc1)C(=O)N[C@@H](Cc1ccccc1)C(=O)N1CCC[C@@H]1C(N)=O [1068.11] (PhAc-LD(X1)F[dP]-NH2)", "studySystem": "VLA-4 (Homo sapiens, UniProt P05556+P13612)", "recordedEndpoint": "Relative Potency (prodrug compound)", "dataValue": 0}
